Hello, the source for this data is patent US20250073302A1, in case you need it.

Assay System: 20S core particle (CP) proteasome
Experiment Notes: cell-based or functional assay
Non-standard residues stand in square brackets, D forms with d. dPhe(3-F) = N[C@H](Cc1cccc(F)c1)C(=O)O; Dap = NC[C@H](N)C(=O)O
The entries below come with measured TAS-1 (percent stimulation of 20S CP) values attached.

Example entries begin here.
>>> data_value("cyclo(T[dL]F[dPhe(3-F)]R[dA]) (SMILES CC(C)C[C@H]1NC(=O)[C@H]([C@@H](C)O)NC(=O)[C@@H](C)NC(=O)[C@H](CCCNC(=N)N)NC(=O)[C@@H](Cc2cccc(F)c2)NC(=O)[C@H](Cc2ccccc2)NC1=O) [CyPPS19]")
"287 % of DMSO"
>>> data_value("cyclo(T[dL]F[dF]R[dA]) (SMILES CC(C)C[C@H]1NC(=O)[C@H]([C@@H](C)O)NC(=O)[C@@H](C)NC(=O)[C@H](CCCNC(=N)N)NC(=O)[C@@H](Cc2ccccc2)NC(=O)[C@H](Cc2ccccc2)NC1=O) [CyPPS1]")
"340 % of DMSO"
>>> data_value("cyclo(D[dL]F[dF]R[dA]) (SMILES CC(C)C[C@H]1NC(=O)[C@H](CC(=O)O)NC(=O)[C@@H](C)NC(=O)[C@H](CCCNC(=N)N)NC(=O)[C@@H](Cc2ccccc2)NC(=O)[C@H](Cc2ccccc2)NC1=O) [CyPPS8]")
"372 % of DMSO"
>>> data_value("cyclo(T[dA]F[dF]A[dR]) (SMILES C[C@@H]1NC(=O)[C@@H](Cc2ccccc2)NC(=O)[C@H](Cc2ccccc2)NC(=O)[C@@H](C)NC(=O)[C@H]([C@@H](C)O)NC(=O)[C@@H](CCCNC(=N)N)NC1=O) [CyPPS35]")
"259 % of DMSO"
>>> data_value("cyclo(T[dL]Y[dF]R[dA]) (SMILES CC(C)C[C@H]1NC(=O)[C@H]([C@@H](C)O)NC(=O)[C@@H](C)NC(=O)[C@H](CCCNC(=N)N)NC(=O)[C@@H](Cc2ccccc2)NC(=O)[C@H](Cc2ccc(O)cc2)NC1=O) [CyPPS16]")
"198 % of DMSO"

GET /value?item= cyclo(T[dL]L[dF]R[dA]) (SMILES CC(C)C[C@@H]1NC(=O)[C@@H](CC(C)C)NC(=O)[C@H]([C@@H](C)O)NC(=O)[C@@H](C)NC(=O)[C@H](CCCNC(=N)N)NC(=O)[C@@H](Cc2ccccc2)NC1=O) [CyPPS29] &field=TAS-1 (percent stimulation of 20S CP) returns 152 % of DMSO

For cyclo(T[dV]F[dF]A[dR]) (SMILES CC(C)[C@H]1NC(=O)[C@H]([C@@H](C)O)NC(=O)[C@@H](CCCNC(=N)N)NC(=O)[C@H](C)NC(=O)[C@@H](Cc2ccccc2)NC(=O)[C@H](Cc2ccccc2)NC1=O) [CyPPS28] the binder record lists TAS-1 (percent stimulation of 20S CP) as 289 % of DMSO

GET /value?item= cyclo(T[dL]F[dF][Dap][dR]) (also: AA5 described as D-Dap in one passage, DAP in another) [CyPPS24] &field=TAS-1 (percent stimulation of 20S CP) returns 370 % of DMSO
